Entries and their PROTEASE % INHIB. values follow.
Molecular target: HIV-1 protease (Human immunodeficiency virus type 1 group M subtype B, UniProt P04585)
Test: biochemical
Conditions: Table I; Dose 1.100 μM
Expressed in %, but write only the number.

Example entries begin here.
CCCC1(CCC)CC(O)=C(C(CC)c2cccc(NS(=O)(=O)c3cn(C)cn3)c2)C(=O)O1 (single isomer, unassigned) [Example 53] : 97.95
CCCC1(CCC)CC(O)=C(C(CC)c2cccc(NS(=O)(=O)c3cccc4cccnc34)c2)C(=O)O1 (single isomer, unassigned) [Example 54] : 87.91

Could you now look at the following compound, please?
Inquiry: # input compound: CCCC1(CCC)CC(O)=C(C(c2cccc(NS(=O)(=O)c3cn(C)cn3)c2)C2CC2)C(=O)O1 (single isomer, unassigned) [Example 57] ; wanted: its PROTEASE % INHIB.
Reply text: 110.68
